Test system: NCI-H23 lung
procedure_text: NCI tumour cell line growth inhibition, 48 h

compound	tested_system	GI50
CCOc1cc(Br)c(C(C)NC(=O)c2cccc(OC)c2)cc1OCC (centres undefined)	NCI-H23 lung	29100 nM
COc1ccc(C(c2ccc(OCCN(C)C)cc2)c2cc3ccccc3c3ccccc23)cc1 (centres undefined)	NCI-H23 lung	1830 nM
Nc1ccccc1.[C-]#[O+].[C-]#[O+].[C-]#[O+].[C-]#[O+].[C-]#[O+].[Cr]	NCI-H23 lung	3670 nM
C=C1C(=O)O[C@H]2[C@H]1CC/C(COC(=O)CCSCCC(=O)OC/C1=C/CC[C@@]3(C)O[C@H]3[C@H]3OC(=O)C(=C)[C@@H]3CC1)=C\CC[C@@]1(C)O[C@@H]21	NCI-H23 lung	1890 nM

* * *

Test system: SNB-75 CNS
procedure_text: NCI tumour cell line growth inhibition, 48 h; in the data active means GI50 below about 0.43 µM; inactive means the rest
Outcome codes: t for active, f for inactive

>>> df
                                   compound  classification
0          CN(Cc1cccc(F)c1)c1ccc(CO)c(Cl)c1               f
1  COC1=C(C)C(=O)c2c(c(CCCl)c3n2CCC3O)C1=O (centres undefined)               t
2          CCN(Cc1ccc(F)cc1)c1ccc(CO)c(C)c1               f
3  N[C@@H]1C(=O)N2C(C(=O)OC(c3ccccc3)c3ccccc3)=C(CCl)CS[C@H]12               f
4  CC1=CC(=O)C(C(C)C)=CC1=Nc1cc(Br)c(O)c(Br)c1               f
5  COc1ccc(-c2ccc(-c3ccc(C(=N)N)nc3)s2)cc1Cl               f
6  Oc1ccc(-c2nc3ccc4[nH]ncc4c3c3c2CCCC3)c(F)c1               f
7  COc1cccc(/C=N/NC(=S)NC2CC3CCC2C3)c1O (centres undefined)               f
8             Cc1cc2cc3ccc(N(C)C)cc3nc2cc1N               f

* * *

// reported GI50 per item
Tested on: SK-MEL-5 melanoma
procedure_text: NCI tumour cell line growth inhibition, 48 h
measured_attribute: GI50

>>> print(df.to_string())
                                   molecule      tested_system  test_value
0  COc1ccc(S(=O)(=O)NC2=NCCN2C(=S)SN2CCn3c2nsc3=S)cc1  SK-MEL-5 melanoma     17.8 µM
1  O=C(CN1CCN(c2cc3c(cc2F)c(=O)c(C(=O)O)cn3C2CC2)CC1)Nc1nc(-c2ccc(Cl)cc2)cs1  SK-MEL-5 melanoma     2.76 µM
2  CCCCCCNC(=O)Oc1ccc(/C(=C(/C)Cc2ccc(OC)cc2)c2ccc(OCCCN(C)C)cc2)cc1  SK-MEL-5 melanoma     16.4 µM
3  CC(=O)N1N=C(c2ccc(Nc3ccnc4cc(Cl)ccc34)cc2)CC1c1ccc(Cl)cc1 (centres undefined)  SK-MEL-5 melanoma      2.2 µM
4  CC(C)N1CCN(Cc2ccc3c(NNC(=O)c4ccccc4)nc4cc(F)ccc4n23)CC1  SK-MEL-5 melanoma    0.921 µM
5  CC(=O)c1c(CN(C)c2ccccc2)n([O-])c2ccccc2[n+]1=O  SK-MEL-5 melanoma       16 µM
6  Nc1nc(N)c(C=Nc2ccc(Br)cc2)c(Nc2ccc(Br)cc2)n1  SK-MEL-5 melanoma     13.5 µM
7  CC1=CC(=O)C(C(C)C)=CC1=Nc1cc(Br)c(O)c(Br)c1  SK-MEL-5 melanoma     3.15 µM
8  COc1cccc(-c2nn(-c3ccccc3)cc2-c2ccnc(NCCNC(=O)Nc3cccc(C(F)(F)F)c3)c2)c1  SK-MEL-5 melanoma     1.73 µM

* * *

System: OVCAR-3 ovarian
procedure_text: NCI tumour cell line growth inhibition, 48 h
measured_attribute: TGI (µM)

In [3]: df
Out[3]:
                                   compound  measured_attribute  bound_sign  test_value
0  O=C(c1ccccc1)n1cc(-c2ccccc2)c2c(=O)[nH]cnc21                 TGI           >         100
1  CCOP(=O)(OCC)C(c1ccccc1)N(C(=O)NC(F)(F)F)c1cccc(F)c1 (stereo not given)                 TGI           >         100
2  COc1ccc(/C=c2\sc3n(c2=O)C2C(NN=3)N(C)C(=O)N2C)cc1 (stereo not given)                 TGI           =        3.53
3  CC(=O)N1N=C(c2ccc(Nc3ccnc4cc(Cl)ccc34)cc2)CC1c1ccc(Cl)cc1 (stereo not given)                 TGI           >         100
4   CCOC(=O)c1c(Br)c(-c2ccc(OC)cc2)c(Br)n1C                 TGI           =        67.7
5  O=c1[nH]c2ccccc2c(O)c1/C=N/C(=S)NCc1ccccc1                 TGI           >         100
6  COc1cccc2c1-c1c(c3ccc([N+](=O)[O-])cc3c(=O)n1CCCN)C2=O                 TGI           =        5.71
7  O=c1[nH]c(=O)n(C2CC(O)C(CO)O2)cc1NN=NCCCc1ccccc1 (stereo not given)                 TGI           >         100
8  CCOC(=O)c1sc2nc(SC)nc3c2c1NCN3c1ccc(F)c(F)c1                 TGI           =        19.5
9  COc1ccc2c(c1)CC[C@@H]1[C@@H]2CC[C@]2(C)[C@@H](NC(=O)/C=C/c3ccc(O)c(O)c3)CC[C@@H]12                 TGI           =        22.7

* * *

Test system: BT-549 breast
procedure_text: NCI tumour cell line growth inhibition, 48 h
measured_attribute: TGI (µM)

In [3]: df
Out[3]:
                                    compound  measured_attribute  value_unit  bound_sign  test_value
 0  CC1(C)C(=O)c2ccccc2OC1N1CCN(C2Oc3ccccc3C(=O)C2(C)C)CC1 (centres undefined)                 TGI          µM           >         100
 1  O=c1oc2ccc([N+](=O)[O-])cc2c(Nc2ccc3c(c2)Sc2ccccc2O3)c1[N+](=O)[O-]                 TGI          µM           =        64.3
 2  Nc1cc(O)ccc1N=Nc1ccc(-c2nc3ccccc3[nH]2)cc1                 TGI          µM           >         100
 3  CCCCCCNC(=O)CCC(NC(=O)c1ccc(N(C)Cc2cnc3nc(N)nc(N)c3n2)cc1)C(=O)NCCCCCC (centres undefined)                 TGI          µM           >         100
 4  COc1ccc2c(C3(c4cn(C)c5cc(OC)ccc45)C(=O)Nc4ccc(Cl)cc43)cn(C)c2c1                 TGI          µM           =        83.4
 5  C=C1C(=O)O[C@H]2[C@H]3O[C@@H](C[C@@H]12)[C@@]1(C)CC[C@H](O1)[C@H](C)CCC[C@H]3C                 TGI          µM           =        2.17
 6  COc1ccc(NC(=O)CC(=O)n2nc(C)c(N=Nc3cccc(C)c3)c2C)cc1                 TGI          µM           >         100
 7  CCCCCCNC(=O)Oc1ccc(/C(=C(/C)Cc2ccc(OC)cc2)c2ccc(OCCCN(C)C)cc2)cc1                 TGI          µM           =        30.3
 8  O=c1[nH]c2ccccc2c(O)c1/C=N/C(=S)NCc1ccccc1                 TGI          µM           >         100
 9  FC(F)(F)c1ccc(-c2cnc(-n3cc(COCCN4CCCCC4)nn3)nc2NC2CCCCCC2)cc1                 TGI          µM           =        8.55
10  COc1cc(C2=NNC(=O)c3ccccc3N2c2nc(-c3cccs3)nc3ccc(Br)cc23)cc(OC)c1OC                 TGI          µM           >         100
11  O=C1C2=C(c3ccccc31)C(c1ccccc1)N1C(=O)CSC1=N2 (centres undefined)                 TGI          µM           =        66.5
12  O=C(CCCCCCCCC(=O)N1C(=O)CC(=O)N(c2ccccc2)C1=S)N1C(=O)CC(=O)N(c2ccccc2)C1=S                 TGI          µM           >         100
13  O=C(O)C[C@@H]1[C@@H](O)[C@@H](O)CN2C(=O)c3ccccc3[C@H]12                 TGI          µM           >         100
14  CCOc1cc(Br)c(C(C)NC(=O)c2cccc(OC)c2)cc1OCC (centres undefined)                 TGI          µM           >        84.1
15  COc1ccc(/C=C/C(=O)c2cc(C(C)(C)C)c(O)c(C(C)(C)C)c2)cc1OC                 TGI          µM           >        77.6
16   CCOC(=O)c1c(Br)c(-c2ccc(OC)cc2)c(Br)n1C                 TGI          µM           >         100
17  CCCCCc1cc2cc3c(c(O)c2c(=O)[nH]1)C1(CCC3)C(O)=c2c(=O)c3c(=O)cc(OC)c(=O)c=3c(=O)c2=C1O (centres undefined)                 TGI          µM           =        3.33
18  N[C@@H]1C(=O)N2C(C(=O)OC(c3ccccc3)c3ccccc3)=C(CCl)CS[C@H]12                 TGI          µM           =        62.8
